Settings: mouse, in vivo, po, 100 mg/kg, 15 min
parameter.measured: Plasma level of non-ester (compound [II]), 0.25 hr (µg/mL)

>>> numeric_value("CC(C)C(OC(=O)C1=C(CSc2nnnn2CCN(C)C)CS[C@@H]2[C@H](NC(=O)Cc3csc(N)n3)C(=O)N12)OC(=O)C1CCCCC1.Cl.Cl (stereo partly drawn)")
66.3

A = CCCC(OC(=O)C1=C(CSc2nnnn2CCN(C)C)CS[C@@H]2[C@H](NC(=O)Cc3csc(N)n3)C(=O)N12)OC(=O)C1CCCCC1.Cl.Cl (stereo partly drawn)
B = CN(C)CCn1nnnc1SCC1=C(C(=O)OCOC(=O)C(C)(C)C)N2C(=O)[C@@H](NC(=O)Cc3csc(N)n3)[C@H]2SC1 [compound A, reference compound]
Of the two listed items, which has the higher Plasma level of non-ester (compound [II]), 0.25 hr? First: A Second: B Returns: label corresponding to the selected item.
A
